From: the kinase profiling compilation of Christmann-Franck et al. (2016)

Tested system: CSNK2A1 (human) (UniProt P68400)
Sequence (P68400 whole entry, looked up): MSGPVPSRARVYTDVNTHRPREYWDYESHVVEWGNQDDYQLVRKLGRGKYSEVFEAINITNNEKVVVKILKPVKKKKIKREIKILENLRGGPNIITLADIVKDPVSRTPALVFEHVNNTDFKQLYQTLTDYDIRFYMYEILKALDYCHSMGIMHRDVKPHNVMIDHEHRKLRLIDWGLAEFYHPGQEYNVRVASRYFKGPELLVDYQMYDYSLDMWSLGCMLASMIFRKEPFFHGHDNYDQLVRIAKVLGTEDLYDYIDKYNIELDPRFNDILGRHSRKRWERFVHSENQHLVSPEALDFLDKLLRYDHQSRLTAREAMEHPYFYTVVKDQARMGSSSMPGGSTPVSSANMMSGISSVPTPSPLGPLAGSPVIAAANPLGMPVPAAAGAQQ
Experiment summary: radiometric filter-binding kinase assay
Test conditions: compound 1.0 µM
Observed property: residual activity (%)
API: value field is a number in %; no unit string.

# input Please state recorded residual activity (tested on CSNK2A1 (human) (UniProt P68400)) of `CCNc1nc(Nc2cc(F)c(C(=O)N3CCOCC3)cc2OC)ncc1C(F)(F)F`
# output 95

# input Please state recorded residual activity (tested on CSNK2A1 (human) (UniProt P68400)) of `CNc1nc(-c2ccc3c(N)n[nH]c3c2)cc(N2C[C@@H](C(=O)NC3CCCCC3)CC[C@H]2C)n1`
# output 91

# input Please state recorded residual activity (tested on CSNK2A1 (human) (UniProt P68400)) of `FC(F)(F)c1ccc(-c2ccc(Oc3cncc4sc(-c5nn[nH]n5)cc34)cc2)cc1`
# output 20

# input Please state recorded residual activity (tested on CSNK2A1 (human) (UniProt P68400)) of `NC(=O)Nc1ccc2c(c1)/C(=C/c1cc(-c3cccnc3)c[nH]1)C(=O)N2`
# output 65

# input Please state recorded residual activity (tested on CSNK2A1 (human) (UniProt P68400)) of `Cn1c(=O)c2c(ncn2C)n(C)c1=O`
# output 106

# input Please state recorded residual activity (tested on CSNK2A1 (human) (UniProt P68400)) of `Oc1ccc2ccccc2c1SSc1c(O)ccc2ccccc12`
# output 104

# input Please state recorded residual activity (tested on CSNK2A1 (human) (UniProt P68400)) of `NCC(=O)Nc1ccc(-n2nc(C(F)(F)F)cc2-c2ccc3c(ccc4ccccc43)c2)cc1`
# output 111

# input Please state recorded residual activity (tested on CSNK2A1 (human) (UniProt P68400)) of O=C1Nc2nc(-c3c(O)cccc3OCC3CC3)cc(C3CCCNC3)c2CO1 (stereo not given)
# output 95

# input Please state recorded residual activity (tested on CSNK2A1 (human) (UniProt P68400)) of `Cc1cc(SCc2sc(-c3ccc(C(F)(F)F)cc3)nc2C)ccc1OCC(=O)O`
# output 84

# input Please state recorded residual activity (tested on CSNK2A1 (human) (UniProt P68400)) of `NC(=O)c1cc(-c2ccnc(NC3CCCCC3)c2)nc(N2CCNCC2)c1`
# output 110
